Data origin, for the record: patent US7323485B2

testedTarget: alpha2B adrenergic receptors (Homo sapiens)
Construct: expressed in transfected cells; host or cells: NIH-3T3
Sequence (P18089 whole entry): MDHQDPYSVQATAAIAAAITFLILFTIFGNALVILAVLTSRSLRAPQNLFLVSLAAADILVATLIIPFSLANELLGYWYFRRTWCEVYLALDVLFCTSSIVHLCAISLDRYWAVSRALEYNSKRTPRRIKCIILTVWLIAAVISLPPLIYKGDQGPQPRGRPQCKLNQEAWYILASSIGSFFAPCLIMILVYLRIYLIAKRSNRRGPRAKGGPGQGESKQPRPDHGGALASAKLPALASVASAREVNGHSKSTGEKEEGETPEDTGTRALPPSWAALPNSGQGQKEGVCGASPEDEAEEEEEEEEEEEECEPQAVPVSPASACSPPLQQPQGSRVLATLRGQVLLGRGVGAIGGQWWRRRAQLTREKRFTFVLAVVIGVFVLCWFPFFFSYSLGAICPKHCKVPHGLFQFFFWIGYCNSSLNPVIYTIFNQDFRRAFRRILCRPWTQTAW
assayInfo: Receptor Selection and Amplification Technology (RSAT) assay, alpha2B
Assay type: cell-based
studyConditions: fraction of maximal effect of standard full agonist brimonidine (UK14304)
From the text: The imidazole-2-thione compounds of the invention are agonists of alpha2 adrenergic receptors, particularly they tend to be specific or selective agonists of alpha2B and/or to a lesser extent alpha2C adrenergic receptors, in preference over alpha2A adrenergic receptors. […] Al., 1995, Pharmacol. Toxicol. 76, pp. 308-311 (incorporated herein by reference) and is also described below. […]
endpointName: Alpha 2B intrinsic activity

Below, 4 molecules whose answers are already recorded.
>>> readoutnumber("Fc1ccc2c(c1)CCC2Cc1c[nH]c(=S)[nH]1 (stereo not shown)")
0.97
>>> readoutnumber("Fc1ccc(C2=C(C3CC3)CCC2Cc2c[nH]c(=S)[nH]2)cc1 (stereo not shown)")
0.9
>>> readoutnumber("S=c1[nH]cc(CC2CCC3=C(CCCC3)C2)[nH]1 (stereo not shown)")
0.78
>>> readoutnumber("S=c1[nH]cc(CC2CCC3=C2CCC3)[nH]1 (stereo not shown) [drawing 15]")
0.87

A = S=c1[nH]cc(C2Cc3cccc(I)c3C2)[nH]1 (stereo not shown)
B = Fc1cccc(C2=CCC[C@@H]2Cc2c[nH]c(=S)[nH]2)c1
Could you kindly indicate whether A or B has the higher Alpha 2B intrinsic activity value? Answer with the label corresponding to your selection. A
